Data credit: patent USRE47193E1

# test system: mouse TLR7 (Mus musculus)
# Sequence (P58681 27-1050): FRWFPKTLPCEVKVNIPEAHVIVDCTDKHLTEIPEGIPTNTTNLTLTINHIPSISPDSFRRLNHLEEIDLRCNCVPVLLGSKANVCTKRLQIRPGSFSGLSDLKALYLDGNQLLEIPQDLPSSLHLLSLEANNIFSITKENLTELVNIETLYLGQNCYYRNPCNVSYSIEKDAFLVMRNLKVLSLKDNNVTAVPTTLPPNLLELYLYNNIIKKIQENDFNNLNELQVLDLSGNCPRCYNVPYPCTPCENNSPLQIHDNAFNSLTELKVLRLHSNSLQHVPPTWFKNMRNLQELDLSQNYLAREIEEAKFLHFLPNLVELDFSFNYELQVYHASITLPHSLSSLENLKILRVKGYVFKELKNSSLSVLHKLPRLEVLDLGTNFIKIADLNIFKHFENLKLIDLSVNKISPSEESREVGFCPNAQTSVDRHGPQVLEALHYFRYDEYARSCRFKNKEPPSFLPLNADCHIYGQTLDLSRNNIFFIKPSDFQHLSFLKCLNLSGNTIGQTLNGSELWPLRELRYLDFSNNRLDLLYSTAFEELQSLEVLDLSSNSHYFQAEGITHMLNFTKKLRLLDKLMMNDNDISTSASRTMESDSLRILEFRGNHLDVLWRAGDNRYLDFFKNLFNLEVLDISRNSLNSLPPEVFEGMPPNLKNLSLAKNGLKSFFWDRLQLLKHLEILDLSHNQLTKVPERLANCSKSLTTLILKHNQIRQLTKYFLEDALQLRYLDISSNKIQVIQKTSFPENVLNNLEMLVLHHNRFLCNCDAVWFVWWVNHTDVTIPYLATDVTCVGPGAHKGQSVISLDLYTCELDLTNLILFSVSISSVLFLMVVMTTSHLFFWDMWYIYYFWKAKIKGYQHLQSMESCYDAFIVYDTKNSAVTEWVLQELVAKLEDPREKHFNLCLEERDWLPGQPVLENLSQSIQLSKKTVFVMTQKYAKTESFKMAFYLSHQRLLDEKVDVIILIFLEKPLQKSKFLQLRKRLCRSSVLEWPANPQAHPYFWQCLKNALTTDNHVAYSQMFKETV
# protocol text: Short-term in vivo (STIV) assay: oral dosing, R848 s.c., plasma IL-6
# Design: female BALB/c mice (Jackson Labs, Bar Harbor, Me.) were dosed by oral gavage; tissue Jackson Labs; host or cells: living female BALB/c mice; plasma IL-6 after s.c. R848
# setup conditions: 3 h; 100 mg/kg
# Method: Figure Legend: Female BALB/c mice were dosed by oral gavage with Vehicle alone (0.5% aqueous methyl-cellulose) or compound formulated in Vehicle at 33 mg/kg, 100 mg/kg or 300 mg/kg. […] (FIG. 1A). Short-term in vivo (STIV) assay: To assess compound potency in vivo against mouse TLR7, a short-term in vivo (STIV) assay was utilized. […] The plasma IL-6 level following R848 stimulation was then measured by ELISA to assess compound potency and duration-of-action. […]
readout kind: % Suppression vs. Vehicle
Just the number plus its unit, please.

Before answering, review these 10 worked examples.
compound | test system | % Suppression vs. Vehicle
C[C@@H]1CN(c2ccc(C#N)c3ncccc23)C[C@H](CNC2CCCCC2)O1 [ER-886611] | mouse TLR7 (Mus musculus) | 100%
CC1CN(c2ccc(C#N)c3ncccc23)CC(CN2CCC(NC(=O)C(C)C)CC2)O1 (centres unmarked) [ER-889745] | mouse TLR7 (Mus musculus) | 93%
CC1CN(c2ccc(C#N)c3ncccc23)CC(CN2CC(N3CCCCC3)C2)O1 (centres unmarked) [ER-889470] | mouse TLR7 (Mus musculus) | 98%
CC1CN(c2ccc(C#N)c3ncccc23)CC(CN2CC(N3CCCC3)C2)O1 (centres unmarked) [ER-889469] | mouse TLR7 (Mus musculus) | 100%
C[C@@H]1CN(c2ccc(C#N)c3ncccc23)C[C@H](CN2CCC(C(N)=O)CC2)O1 [ER-888320] | mouse TLR7 (Mus musculus) | 100%
CCCN1CCN(C[C@H]2CN(c3ccc(C#N)c4ncccc34)C[C@@H](C)O2)CC1 [ER-887724] | mouse TLR7 (Mus musculus) | 99%
C[C@@H]1CN(c2ccc(C#N)c3ncccc23)C[C@H](CN2CCCN(C)CC2)O1 [ER-889601] | mouse TLR7 (Mus musculus) | 96%
CC1CN(c2ccc(C#N)c3ncccc23)CC(CN2CCC(N(C)C)CC2)O1 (centres unmarked) [ER-887725] | mouse TLR7 (Mus musculus) | 99%
C[C@@H]1CN(c2ccc(C#N)c3ncccc23)C[C@H](CNC2CCCC2)O1 [ER-887145] | mouse TLR7 (Mus musculus) | 99%
CC(=O)NC1CCN(CC2CN(c3ccc(C#N)c4ncccc34)CC(C)O2)CC1 (centres unmarked) [ER-888288] | mouse TLR7 (Mus musculus) | 98%

Continue with the next compound.
mouse TLR7 (Mus musculus) assay, compound CC1CN(c2ccc(C#N)c3ncccc23)CC(CN2CCCC2CO)O1 (centres unmarked) [ER-886814] , recorded % Suppression vs. Vehicle = 100%
